Cited source for all entries: PubChem BioAssay AID743059

assayedTarget: Nuclear hormone receptor DAF-12 (Heterodera glycines)
experimentNotes: hgDAF-12 reporter activation EC50 – cell-based, luminescence, HEK293, dose response (AID 743059);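 also: agonist potency for compounds that raise hgDAF-12 reporter luminescence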
experimentalParameters: HEK293 hgDAF-12 reporter, luciferase luminescence
Activity calls are given as the source filed them.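 The calls were made as follows: active = EC50 at or below 10 µM; inactive = EC50 above 10 µM.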
Measured EC50 by item

Previously resolved entries follow.
- smilesRepresentation: "CCOc1ccc2nc(NC(=O)Nc3cccs3)sc2c1"
  assayedTarget: "Nuclear hormone receptor DAF-12 (Heterodera glycines)"
  assayMetric: "EC50"
  endpointValue: "> 67.5 µM (inactive)"
- smilesRepresentation: "Nc1ncc(Br)cc1N=Cc1ccccc1"
  assayedTarget: "Nuclear hormone receptor DAF-12 (Heterodera glycines)"
  assayMetric: "EC50"
  endpointValue: "> 67.5 µM (inactive)"
- smilesRepresentation: "COc1cccc(-c2nc(-c3ccc(Br)o3)no2)c1"
  assayedTarget: "Nuclear hormone receptor DAF-12 (Heterodera glycines)"
  assayMetric: "EC50"
  endpointValue: "> 67.5 µM (inactive)"
- smilesRepresentation: "Brc1ccc(-c2noc(-c3ccccc3)n2)o1"
  assayedTarget: "Nuclear hormone receptor DAF-12 (Heterodera glycines)"
  assayMetric: "EC50"
  endpointValue: "> 67.6 µM (inactive)"
- smilesRepresentation: "Cc1nn(-c2ccccc2)c(Cl)c1/C=N/Nc1ccc(Cl)c(C(=O)O)c1"
  assayedTarget: "Nuclear hormone receptor DAF-12 (Heterodera glycines)"
  assayMetric: "EC50"
  endpointValue: "> 67.5 µM (inactive)"
- smilesRepresentation: "Oc1ccc(N=Nc2ccc3ccccc3c2)cc1"
  assayedTarget: "Nuclear hormone receptor DAF-12 (Heterodera glycines)"
  assayMetric: "EC50"
  endpointValue: "> 67.5 µM (inactive)"
- smilesRepresentation: "Cc1cc2nc(-c3cccnc3SCC(=O)NCc3ccco3)[nH]c2cc1C"
  assayedTarget: "Nuclear hormone receptor DAF-12 (Heterodera glycines)"
  assayMetric: "EC50"
  endpointValue: "> 67.6 µM (inactive)"
- smilesRepresentation: "CCOC(=O)c1csc(-c2sccc2Br)n1"
  assayedTarget: "Nuclear hormone receptor DAF-12 (Heterodera glycines)"
  assayMetric: "EC50"
  endpointValue: "> 67.6 µM (inactive)"

*Q* EC50 for c1ccc(Nc2nc(-c3ccccc3)ns2)cc1 ?
*A* > 67.6 µM (inactive)

*Q* // returns reported EC50 for input O=C(O)c1cc(-c2cccs2)[nH]n1
*A* > 67.6 µM (inactive)

*Q* Recorded EC50 of Oc1[nH]c2ccccc2c1C=Nc1ccccc1 , please.
*A* > 67.5 µM (inactive)

*Q* Look at this compound and give its reported EC50. CN(C)c1ccc(Nc2nc(-c3cccnc3)cs2)cc1
*A* > 67.5 µM (inactive)

*Q* Entry CCc1cc(C(=O)Nc2ncccc2O)sc1C has what EC50?
*A* > 67.5 µM (inactive)

###

assayedTarget: Nuclear hormone receptor DAF-12 (Heterodera glycines)
experimentNotes: hgDAF-12 reporter activation EC50 – cell-based, luminescence, HEK293, dose response (AID 743059);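 also: agonist potency for compounds that raise hgDAF-12 reporter luminescence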
experimentalParameters: HEK293 hgDAF-12 reporter, luciferase luminescence
Activity calls are given as the source filed them.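 Rule for the calls: active = EC50 at or below 10 µM; inactive = EC50 above 10 µM.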
Give one outcome, nothing more. List: class 1 (active), class 0 (inactive)

- compound: "Cc1ccc(/C=N/NC(=O)c2ccccn2)s1"
  labelValue: "class 0"
- compound: "Cc1nc(N)sc1N=Nc1ccc(Br)cc1"
  labelValue: "class 0"
- compound: "c1cncc(-c2noc(-c3ccc4ccccc4c3)n2)c1"
  labelValue: "class 0"
- compound: "CN(C)/C=N/C(=S)Nc1ccc(Cl)cc1"
  labelValue: "class 0"

*Q* How was Cc1cnc(NC(=O)COc2ccc3c(c2)CCC3)s1 classified in this test?
*A* class 0

###

assayedTarget: Nuclear hormone receptor DAF-12 (Heterodera glycines)
experimentNotes: hgDAF-12 reporter activation EC50 – cell-based, luminescence, HEK293, dose response (AID 743059);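 also: agonist potency for compounds that raise hgDAF-12 reporter luminescence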
experimentalParameters: HEK293 hgDAF-12 reporter, luciferase luminescence
The source made the active and inactive calls.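 The calls were made as follows: active = EC50 at or below 10 µM; inactive = EC50 above 10 µM.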
assayMetric: EC50

Answered cases to consult:
- molecule: "Cc1ccc2nc(C)/c(=N\\O)c(C)nc2c1"
  endpointValue: "> 67.6 µM (inactive)"
- molecule: "O=C(/C=C/c1ccccc1)N1CCC(c2ccccc2)C1 (stereo not given)"
  endpointValue: "> 67.5 µM (inactive)"
- molecule: "Cc1c(C(=O)Nc2nccs2)oc2ccccc12"
  endpointValue: "> 67.6 µM (inactive)"
- molecule: "Cc1ccc(/C(N)=N/OC(=O)c2cccs2)cc1"
  endpointValue: "> 67.6 µM (inactive)"

*Q* // query EC50 value for entry O=C(Nc1ccccn1)c1csc2c1CCCC2
*A* > 67.5 µM (inactive)

*Q* Can you look up the measured EC50 of Cn1c(NC(=O)CCC2CCCCC2)cc(=O)n(C)c1=O for me?
*A* > 67.5 µM (inactive)

*Q* Returns the measured EC50 for the input molecule. Input: N/C(=N\OC(=O)c1cc(Br)ccc1Cl)c1ccccn1
*A* > 67.5 µM (inactive)

*Q* Sample c1ccc(CSc2ccc(-c3cccs3)nn2)cc1 — what was its EC50?
*A* > 67.5 µM (inactive)

*Q* I'd like to know its EC50. The molecule in question is O=c1[nH]c(=O)n(C2CC(O)C(CO)O2)cc1Br (stereo not given)
*A* > 67.6 µM (inactive)

*Q* Query (molecule): COc1ccccc1/C=N\N=C(\N)c1ccccn1 ; field requested: EC50
*A* > 67.6 µM (inactive)

*Q* EC50 lookup needed for Cc1ccn(-c2cccc(-n3ccc(C)n3)n2)n1 , thanks.
*A* > 67.6 µM (inactive)

*Q* So what's the measured EC50 for this one? c1ccc(Nc2nc(-c3cccnc3)cs2)nc1
*A* > 67.6 µM (inactive)

###

assayedTarget: Nuclear hormone receptor DAF-12 (Heterodera glycines)
experimentNotes: hgDAF-12 reporter activation EC50 – cell-based, luminescence, HEK293, dose response (AID 743059);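 also: agonist potency for compounds that raise hgDAF-12 reporter luminescence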
experimentalParameters: HEK293 hgDAF-12 reporter, luciferase luminescence
Active and inactive are the calls of the source.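 The calls were made as follows: active = EC50 at or below 10 µM; inactive = EC50 above 10 µM.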
assayMetric: EC50

- smilesRepresentation: "Cc1cc(NC(=O)CSc2nc3c(cc2C#N)CCC3)no1"
  assayMetric: "EC50"
  endpointValue: "> 67.6 µM (inactive)"
- smilesRepresentation: "Cc1cccc(N=Nc2cnc(N)s2)c1"
  assayMetric: "EC50"
  endpointValue: "> 67.6 µM (inactive)"
- smilesRepresentation: "C(=C\\n1nnc2ccccc21)/c1ccccn1"
  assayMetric: "EC50"
  endpointValue: "> 67.5 µM (inactive)"
- smilesRepresentation: "Nc1nc(Nc2ccc(Cl)cc2)nc2ccccc12"
  assayMetric: "EC50"
  endpointValue: "> 67.5 µM (inactive)"
- smilesRepresentation: "Cc1c(C(=O)Nc2ccccc2)csc1-c1ccccc1"
  assayMetric: "EC50"
  endpointValue: "> 67.5 µM (inactive)"

*Q* Record request: EC50 value, item Cc1nn(C(=O)c2cccs2)c(N)c1-c1ccccc1
*A* > 67.5 µM (inactive)

*Q* Give its EC50 value. Item: c1csc(-c2nnc(-c3ccc(N4CCOCC4)cc3)o2)c1
*A* > 67.5 µM (inactive)

*Q* Given OCCN1CCN(c2cnc(-c3ccsc3)cn2)CC1 , state its recorded EC50.
*A* > 67.5 µM (inactive)

*Q* EC50 lookup needed for N#Cc1c(N)nc(N)nc1Nc1ccc(Br)cc1 , thanks.
*A* > 67.4 µM (inactive)

*Q* Request the reported EC50 associated with Cc1ccc(N=Nc2ccc(O)cc2)c(Br)c1
*A* > 67.5 µM (inactive)

*Q* What measured EC50 goes with N=C1c2ccccc2CN1CC(=O)c1ccccc1 ?
*A* > 67.6 µM (inactive)

*Q* Reported EC50, compound Cc1ccc(N/C=C(/C#N)c2ccsc2)cc1C : ____
*A* > 67.5 µM (inactive)

###

Entries annotated with measured EC50
assayedTarget: Nuclear hormone receptor DAF-12 (Heterodera glycines)
experimentNotes: hgDAF-12 reporter activation EC50 – cell-based, luminescence, HEK293, dose response (AID 743059);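 also: agonist potency for compounds that raise hgDAF-12 reporter luminescence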
experimentalParameters: HEK293 hgDAF-12 reporter, luciferase luminescence
Calls of active or inactive are those of the source.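 The calls were made as follows: active = EC50 at or below 10 µM; inactive = EC50 above 10 µM.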

Solved entries:
- compound: "Cc1c(C(=O)OC2CCC(C)CC2)[nH]c2c1C(=O)CCC2 (stereo not drawn)"
  assayedTarget: "Nuclear hormone receptor DAF-12 (Heterodera glycines)"
  EC50: "> 67.5 µM (inactive)"
- compound: "C=CCN1C(=O)[C@@H](CC(=O)N2CCSCC2)[C@]2(C(=O)OC)CCCCC=C12"
  assayedTarget: "Nuclear hormone receptor DAF-12 (Heterodera glycines)"
  EC50: "> 67.5 µM (inactive)"
- compound: "O=c1c2ccccc2nnn1CSc1ccccc1F"
  assayedTarget: "Nuclear hormone receptor DAF-12 (Heterodera glycines)"
  EC50: "> 67.5 µM (inactive)"
- compound: "Cc1cc(-c2nc3cccnc3s2)ccc1NS(=O)(=O)c1cccs1"
  assayedTarget: "Nuclear hormone receptor DAF-12 (Heterodera glycines)"
  EC50: "> 67.5 µM (inactive)"
- compound: "Cc1ccsc1/C=N/NC(=O)c1sccc1C"
  assayedTarget: "Nuclear hormone receptor DAF-12 (Heterodera glycines)"
  EC50: "> 67.5 µM (inactive)"

*Q* Quick one: EC50 of COCC1CCN(Cc2nc(-c3cccs3)no2)C1 (stereo not drawn) ?
*A* > 67.5 µM (inactive)

*Q* I would be grateful if you could share the reported EC50 for Clc1ccccc1Nc1nc2ccccc2o1 .
*A* > 67.6 µM (inactive)

*Q* Requested field: EC50. Item: COc1ccc(/C=C2\SC(=O)N(CCNC(=O)C3CC4C=CC3C4)C2=O)cc1 (stereo not drawn)
*A* > 67.5 µM (inactive)

*Q* I am curious: what EC50 value has been reported for Cc1cccc(NC(=O)c2ccc3ccccc3n2)c1C ?
*A* > 67.5 µM (inactive)

*Q* Using the record for CC(=Nc1cccc(C)c1)c1sc2ccccc2c1O , report its EC50.
*A* > 67.6 µM (inactive)

*Q* Fill in the blank: the reported EC50 of O=C(CC(=O)c1cccs1)c1ccncc1 is ____.
*A* > 67.5 µM (inactive)

*Q* Entry under review: Cc1cc2ncc(-c3ccccc3)nc2cc1C . Reported EC50?
*A* > 67.5 µM (inactive)

*Q* Data request, read-out EC50, for CN(C)c1ccc(N=Nc2nccs2)cc1
*A* > 67.4 µM (inactive)
